The reported measurements were obtained from PubChem BioAssay (NCI).

- Tested on: NCI-H226 lung
- test.method.notes: NCI tumour cell line growth inhibition, 48 h
Assign TGI to each entry below.

*Q* Quick check: TGI of COc1ccc(NC(=O)c2sc3nc(C)c(C(O)c4ccccc4)cc3c2N)cc1 (stereo not drawn) ?
*A* > 100 µM

*Q* Quick check: TGI of CCC(C)C(NC(=O)C1CCCN1C(=O)C(NC(=O)C(C)N)C(C)C)C(N)=O (stereo not drawn) ?
*A* > 100 µM

*Q* Quick check: TGI of CS(=O)(=O)Nc1ccc(Nc2c3ccccc3nc3ccccc23)cc1 ?
*A* 7.14 µM

*Q* Quick check: TGI of CCCN(CCC)c1ccc(/C=N/NC(=O)c2cccnc2)c(Cl)c1 ?
*A* 0.707 µM

*Q* Quick check: TGI of O=C(Cc1ccc(Cl)c(Cl)c1)N(CCc1ccc(Cl)c(Cl)c1)CCN1CCCC1 ?
*A* 4.91 µM

*Q* Quick check: TGI of COc1ccc(/C(C)=N/OC(=O)c2c(-c3ccccc3Cl)noc2C)cc1CN1CCOCC1 ?
*A* > 100 µM

*Q* Quick check: TGI of Nc1ccc(/C=N/Nc2ccnc3c(N)cccc23)c2cccnc12 ?
*A* 20.8 µM

*Q* Quick check: TGI of COc1ccc2[nH]c3c(c2c1)COc1ccccc1C3=O ?
*A* > 100 µM

###

Assign TGI to each entry below.
- Tested on: NCI-H460 lung
- test.method.notes: NCI tumour cell line growth inhibition, 48 h

*Q* Quick check: TGI of O=C(Cc1ccc(Cl)c(Cl)c1)N(CCc1ccc(Cl)c(Cl)c1)CCN1CCCC1 ?
*A* 3.39 µM

*Q* Quick check: TGI of Cc1cc(Cl)ccc1N=C1NC(=O)C(CC(=O)Nc2ccc(Cl)cc2Cl)S1 (stereo unspecified) ?
*A* > 100 µM

*Q* Quick check: TGI of O=C(/C=C\c1ccc(Cl)cc1Cl)c1cccs1 ?
*A* 89.5 µM

*Q* Quick check: TGI of c1cncc(-c2ncc3cccnc3n2)c1 ?
*A* > 100 µM

*Q* Quick check: TGI of N.N.NCCCCN.O=C([O-])C1(C(=O)[O-])CCC1.O=C([O-])C1(C(=O)[O-])CCC1.[Pt+4].[Pt+4] ?
*A* > 100 µM

*Q* Quick check: TGI of O=c1oc2ccc3ccccc3c2cc1-c1nc2ccccc2o1 ?
*A* > 100 µM

*Q* Quick check: TGI of COC(=O)C(Cl)=C1CC1 ?
*A* > 100 µM

*Q* Quick check: TGI of OCC12C3C4C1C1C2C3C41CO (stereo unspecified) ?
*A* > 100 µM

*Q* Quick check: TGI of C=C1c2nc3ccccc3n2C=C(c2ccccc2)N1c1ccccc1 ?
*A* 79.6 µM

*Q* Quick check: TGI of NC(=S)N/N=C1/C(=O)N(c2ccc(Cl)cc2Cl)C(=O)C(=O)C1c1nc2ccccc2s1 (stereo unspecified) ?
*A* > 100 µM

*Q* Quick check: TGI of O=C(OCC1OC(c2nn[nH]n2)C(OC(=O)c2ccccc2)C1OC(=O)c1ccccc1)c1ccccc1 (stereo unspecified) ?
*A* > 100 µM

###

- Test system: KM20L2 colon
- test.method.notes: NCI tumour cell line growth inhibition, 48 h
observable: TGI

*Q* Quick check: TGI of CCCCN1C(=O)NC(Cc2ccccc2)C1=O (stereo not drawn) ?
*A* > 100 µM

*Q* Quick check: TGI of CO[C@@H]1[C@H](OC(=O)NC(=O)CCl)CC[C@]2(CO2)[C@H]1[C@@]1(C)O[C@@H]1CC=C(C)C ?
*A* 41.5 µM

*Q* Quick check: TGI of OCC12C3C4C1C1C2C3C41CO (stereo not drawn) ?
*A* > 100 µM

*Q* Quick check: TGI of C1=Cc2nc1c(-c1ccncc1)c1ccc([n-]1)c(-c1ccncc1)c1nc(c(-c3ccncc3)c3ccc([n-]3)c2-c2ccncc2)C=C1.[Zn+2] ?
*A* > 100 µM

*Q* Quick check: TGI of CCCCCCCC/C=C\CCCCCCCC(=O)NCCN(CCN)C(=O)CCCCCCC/C=C\CCCCCCCC ?
*A* > 100 µM

*Q* Quick check: TGI of N#Cc1cc([N+](=O)[O-])ccc1NC(=O)C(=O)C(C(=O)/C=C/c1ccccc1)C1OC(=O)c2ccccc21 (stereo not drawn) ?
*A* > 100 µM

*Q* Quick check: TGI of Cc1ccc(C)c(NC(=O)CC/C(=N\NC(=O)C(N)=O)C(C)C(=O)c2ccc(O)cc2)c1 (stereo not drawn) ?
*A* > 100 µM

*Q* Quick check: TGI of CC1OC(OCC2COC(O)(Oc3c(-c4ccc(O)c(O)c4)oc4cc(O)cc(O)c4c3=O)C(O)C2O)C(O)C(O)C1O (stereo not drawn) ?
*A* > 100 µM

*Q* Quick check: TGI of O=C1OC(O)C(Oc2ccc(Cl)cc2)=C1Cl (stereo not drawn) ?
*A* > 100 µM

*Q* Quick check: TGI of COc1ccc2nc3ccccc3c(NCCCCCCN(C)CCCl)c2c1 ?
*A* 2.54 µM

*Q* Quick check: TGI of O=C(COc1ccccc1)NS(=O)(=O)c1ccccc1 ?
*A* > 100 µM

*Q* Quick check: TGI of Clc1c(Cl)c2c(Cl)c(Cl)c1C[P+](c1ccccc1)(c1ccccc1)CC[P+](c1ccccc1)(c1ccccc1)Cc1c(Cl)c(Cl)c(c(Cl)c1Cl)C[P+](c1ccccc1)(c1ccccc1)CC[P+](c1ccccc1)(c1ccccc1)C2 ?
*A* 12.9 µM

*Q* Quick check: TGI of CC(C)[C@](O)(C(=O)OCC1CC[N+]2([O-])CC[C@@H](O)C12)[C@H](C)O (stereo partly drawn) ?
*A* > 375 µM
